targetSystem: human type 1 glycine transporter (GlyT1) (Homo sapiens, UniProt P48067)
Construct: T98G cells (glioma cells) expressing human type 1 glycine transporter (GlyT1) were used
Sequence (P48067 1-706): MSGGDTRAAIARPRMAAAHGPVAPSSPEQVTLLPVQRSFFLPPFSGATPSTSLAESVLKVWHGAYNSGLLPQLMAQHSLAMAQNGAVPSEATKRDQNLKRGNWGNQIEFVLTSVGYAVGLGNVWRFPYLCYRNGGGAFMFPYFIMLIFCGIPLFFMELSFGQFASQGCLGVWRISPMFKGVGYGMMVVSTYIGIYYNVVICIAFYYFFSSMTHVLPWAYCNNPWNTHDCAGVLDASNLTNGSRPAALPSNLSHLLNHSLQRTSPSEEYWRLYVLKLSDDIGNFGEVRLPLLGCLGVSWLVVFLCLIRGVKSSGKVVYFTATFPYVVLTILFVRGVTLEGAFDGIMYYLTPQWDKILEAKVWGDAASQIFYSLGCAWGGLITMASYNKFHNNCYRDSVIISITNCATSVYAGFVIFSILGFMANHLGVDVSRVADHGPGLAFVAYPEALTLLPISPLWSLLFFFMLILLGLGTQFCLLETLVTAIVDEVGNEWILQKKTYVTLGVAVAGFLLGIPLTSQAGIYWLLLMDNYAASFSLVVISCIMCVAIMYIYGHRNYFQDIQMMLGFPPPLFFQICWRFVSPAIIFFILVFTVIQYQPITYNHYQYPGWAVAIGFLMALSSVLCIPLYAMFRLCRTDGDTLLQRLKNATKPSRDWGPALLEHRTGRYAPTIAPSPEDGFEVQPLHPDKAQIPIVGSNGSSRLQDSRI
protocolNotes: Glycine uptake inhibition experiment ([3H]glycine uptake)
Type: cell-based
testContext: GlyT1

[
  {
    "compound": "Cc1cccc(Cl)c1C(=O)NC(c1cccc(F)c1Cl)[C@]1(O)CC[C@@H](F)CC1 (single isomer, unassigned) [Compound 299]",
    "targetSystem": "human type 1 glycine transporter (GlyT1) (Homo sapiens, UniProt P48067)",
    "valueUnits": "nM",
    "IC50": 610
  },
  {
    "compound": "O=C(NC(c1cccnc1Cl)C1(O)CCC(F)(F)CC1)c1cccc(C(F)(F)F)c1Cl (single isomer, unassigned) [Compound 357]",
    "targetSystem": "human type 1 glycine transporter (GlyT1) (Homo sapiens, UniProt P48067)",
    "valueUnits": "nM",
    "IC50": 330
  },
  {
    "compound": "O=C(NC(c1cccc(-c2ccncc2)c1)C1(O)CCCC1)c1cccc(C(F)(F)F)c1Cl (stereo not drawn) [Compound 4]",
    "targetSystem": "human type 1 glycine transporter (GlyT1) (Homo sapiens, UniProt P48067)",
    "valueUnits": "nM",
    "IC50": 400
  },
  {
    "compound": "O=C(NC(c1cc(F)ccc1Cl)[C@]1(O)CC[C@@H](F)CC1)c1nccc(C(F)(F)F)c1Cl (single isomer, unassigned) [Compound 374]",
    "targetSystem": "human type 1 glycine transporter (GlyT1) (Homo sapiens, UniProt P48067)",
    "valueUnits": "nM",
    "IC50": 170
  },
  {
    "compound": "O=C(NC(c1ccccc1Cl)[C@]1(O)CC[C@H](F)CC1)c1nccc(C(F)(F)F)c1Cl (single isomer, unassigned) [Compound 198]",
    "targetSystem": "human type 1 glycine transporter (GlyT1) (Homo sapiens, UniProt P48067)",
    "valueUnits": "nM",
    "IC50": 200
  },
  {
    "compound": "O=C(NC(c1cccc(F)c1)C1(O)CCC(F)(F)CC1)c1nccc(C(F)(F)F)c1Cl (stereo not drawn) [Compound 75]",
    "targetSystem": "human type 1 glycine transporter (GlyT1) (Homo sapiens, UniProt P48067)",
    "valueUnits": "nM",
    "IC50": 240
  }
]

The values you see were collected from patent US20160130278A1.
